Each record here notes measured MIC.
Tested on: K. pneumoniae ESBL+—clinical isolate C1914
PROTOCOL NOTES: Microdilution broth MIC
Format: cell-based
PROTOCOL CONDITIONS: Klebsiella pneumoniae, 24 h

Below, 2 molecules whose answers are already recorded.
# MOLECULE, DATA VALUE
records = [
    ("CCCCCCCCCCCCNC(=O)c1cc(OCCC[Si](CCCSCC(=O)NCCC[P+](c2ccccc2)(c2ccccc2)c2ccccc2)(CCCSCC(=O)NCCC[P+](c2ccccc2)(c2ccccc2)c2ccccc2)CCCSCC(=O)NCCC[P+](c2ccccc2)(c2ccccc2)c2ccccc2)cc(OCCC[Si](CCCSCC(=O)NCCC[P+](c2ccccc2)(c2ccccc2)c2ccccc2)(CCCSCC(=O)NCCC[P+](c2ccccc2)(c2ccccc2)c2ccccc2)CCCSCC(=O)NCCC[P+](c2ccccc2)(c2ccccc2)c2ccccc2)c1 [DnP6-1C12]", "12.5 µM"),
    ("CCCCCCCCCCCCNC(=O)c1ccc(OCCC[Si](CCCSCC(=O)NCCC[P+](c2ccccc2)(c2ccccc2)c2ccccc2)(CCCSCC(=O)NCCC[P+](c2ccccc2)(c2ccccc2)c2ccccc2)CCCSCC(=O)NCCC[P+](c2ccccc2)(c2ccccc2)c2ccccc2)cc1 [DnP3-1C12]", "> 12.5 µM"),
]

Attention now shifts to the item below.
Tell me measured MIC for CCCCCCCCCCCCNC(=O)c1cc(OCCC[Si](CCCSCC(=O)NCCC[P+](c2ccccc2)(c2ccccc2)c2ccccc2)(CCCSCC(=O)NCCC[P+](c2ccccc2)(c2ccccc2)c2ccccc2)CCCSCC(=O)NCCC[P+](c2ccccc2)(c2ccccc2)c2ccccc2)cc(C(=O)NCCCCCCCCCCCC)c1 [DnP3-2C12] please. > 12.5 µM

* * *

Each record here notes measured PI of dendriplex.
System: anti-miR-21 oligo(2′-O-methylribonucleotide)
PROTOCOL NOTES: DLS of dendriplexes with anti-miR-21 oligonucleotide
Assay type: physicochemical
PROTOCOL CONDITIONS: CR 5
Format: numeric value only, no unit, no commentary.

# SMILES TEXT, DATA VALUE
data = [
    ("CCCCCCCCCCCCCCCCCCNC(=O)c1cc(OCCC[Si](CCCSCC(=O)NCCC[P+](c2ccccc2)(c2ccccc2)c2ccccc2)(CCCSCC(=O)NCCC[P+](c2ccccc2)(c2ccccc2)c2ccccc2)CCCSCC(=O)NCCC[P+](c2ccccc2)(c2ccccc2)c2ccccc2)cc(C(=O)NCCCCCCCCCCCCCCCCCC)c1", 0.3),
]

Attention now shifts to the item below.
Tell me measured PI of dendriplex for `CCCCCCCCCCCCCCCCCCNC(=O)c1cc(OCCC[Si](CCCSCC(=O)NCCC[P+](c2ccccc2)(c2ccccc2)c2ccccc2)(CCCSCC(=O)NCCC[P+](c2ccccc2)(c2ccccc2)c2ccccc2)CCCSCC(=O)NCCC[P+](c2ccccc2)(c2ccccc2)c2ccccc2)cc(OCCC[Si](CCCSCC(=O)NCCC[P+](c2ccccc2)(c2ccccc2)c2ccccc2)(CCCSCC(=O)NCCC[P+](c2ccccc2)(c2ccccc2)c2ccccc2)CCCSCC(=O)NCCC[P+](c2ccccc2)(c2ccccc2)c2ccccc2)c1` please. 0.3

* * *

System: S. epidermidis—clinical isolate C1936
PROTOCOL NOTES: Microdilution broth MIC
Format: cell-based
PROTOCOL CONDITIONS: Staphylococcus epidermidis, 24 h
Each record here notes measured MIC.
# unit: µM | format: bare number

Tell me measured MIC for `CCCCCCCCCCCCNC(=O)c1cc(OCCC[Si](CCCSCC(=O)NCCC[P+](c2ccccc2)(c2ccccc2)c2ccccc2)(CCCSCC(=O)NCCC[P+](c2ccccc2)(c2ccccc2)c2ccccc2)CCCSCC(=O)NCCC[P+](c2ccccc2)(c2ccccc2)c2ccccc2)cc(OCCC[Si](CCCSCC(=O)NCCC[P+](c2ccccc2)(c2ccccc2)c2ccccc2)(CCCSCC(=O)NCCC[P+](c2ccccc2)(c2ccccc2)c2ccccc2)CCCSCC(=O)NCCC[P+](c2ccccc2)(c2ccccc2)c2ccccc2)c1` please. 1.56

Tell me measured MIC for `CCCCCCCCCCCCCCCCCCNC(=O)c1cc(OCCC[Si](CCCSCC(=O)NCCC[P+](c2ccccc2)(c2ccccc2)c2ccccc2)(CCCSCC(=O)NCCC[P+](c2ccccc2)(c2ccccc2)c2ccccc2)CCCSCC(=O)NCCC[P+](c2ccccc2)(c2ccccc2)c2ccccc2)cc(OCCC[Si](CCCSCC(=O)NCCC[P+](c2ccccc2)(c2ccccc2)c2ccccc2)(CCCSCC(=O)NCCC[P+](c2ccccc2)(c2ccccc2)c2ccccc2)CCCSCC(=O)NCCC[P+](c2ccccc2)(c2ccccc2)c2ccccc2)c1` please. 6.25

* * *

Tested on: anti-miR-21 oligo(2′-O-methylribonucleotide)
PROTOCOL NOTES: DLS of dendriplexes with anti-miR-21 oligonucleotide
Type: physicochemical
PROTOCOL CONDITIONS: CR 10, anti-miR-21 500 nM, 0.9% NaCl
QUANTITY MEASURED: mean diameter of dendriplex (μm)
# unit: μm | format: bare number

# SMILES TEXT, mean diameter of dendriplex / μm
rows = [
    ("CCCCCCCCCCCCNC(=O)c1cc(OCCC[Si](CCCSCC(=O)NCCC[P+](c2ccccc2)(c2ccccc2)c2ccccc2)(CCCSCC(=O)NCCC[P+](c2ccccc2)(c2ccccc2)c2ccccc2)CCCSCC(=O)NCCC[P+](c2ccccc2)(c2ccccc2)c2ccccc2)cc(OCCC[Si](CCCSCC(=O)NCCC[P+](c2ccccc2)(c2ccccc2)c2ccccc2)(CCCSCC(=O)NCCC[P+](c2ccccc2)(c2ccccc2)c2ccccc2)CCCSCC(=O)NCCC[P+](c2ccccc2)(c2ccccc2)c2ccccc2)c1", 0.8),
    ("CCCCCCCCCCCCNC(=O)c1cc(OCCC[Si](CCCSCC(=O)NCCC[P+](c2ccccc2)(c2ccccc2)c2ccccc2)(CCCSCC(=O)NCCC[P+](c2ccccc2)(c2ccccc2)c2ccccc2)CCCSCC(=O)NCCC[P+](c2ccccc2)(c2ccccc2)c2ccccc2)cc(C(=O)NCCCCCCCCCCCC)c1", 0.18),
]

Tell me measured mean diameter of dendriplex for `CCCCCCCCCCCCCCCCCCNC(=O)c1cc(OCCC[Si](CCCSCC(=O)NCCC[P+](c2ccccc2)(c2ccccc2)c2ccccc2)(CCCSCC(=O)NCCC[P+](c2ccccc2)(c2ccccc2)c2ccccc2)CCCSCC(=O)NCCC[P+](c2ccccc2)(c2ccccc2)c2ccccc2)cc(C(=O)NCCCCCCCCCCCCCCCCCC)c1` please. 0.22

* * *

System: anti-miR-21 oligo(2′-O-methylribonucleotide)
PROTOCOL NOTES: DLS of dendriplexes with anti-miR-21 oligonucleotide
Format: physicochemical
PROTOCOL CONDITIONS: CR 2.5
Description: Dendriplexes were characterized by DLS using Zetasizer Nano-S (Malvern Panalytical, UK) equipped with a 632.8 nm laser, applying detection angle 173°. Mean diameters from the intensity-weighted size distribution are given. Average results from three consecutive sets of measurements generated by Malvern Zetasizer Software version 7.13 are presented. Amphiphilic dendrons (1.5–73 μM) were mixed with the anti-miR-21:5′-m([…]) (500 nM) in 0.9% NaCl solution in milli-Q water. […]
Each record here notes measured PI of dendriplex.
Format: numeric value only, no unit, no commentary.

Below, 2 compounds whose answers are already recorded.
# COMPOUND, PI of dendriplex
data = [
    ("CCCCCCCCCCCCCCCCCCNC(=O)c1cc(OCCC[Si](CCCSCC(=O)NCCC[P+](c2ccccc2)(c2ccccc2)c2ccccc2)(CCCSCC(=O)NCCC[P+](c2ccccc2)(c2ccccc2)c2ccccc2)CCCSCC(=O)NCCC[P+](c2ccccc2)(c2ccccc2)c2ccccc2)cc(OCCC[Si](CCCSCC(=O)NCCC[P+](c2ccccc2)(c2ccccc2)c2ccccc2)(CCCSCC(=O)NCCC[P+](c2ccccc2)(c2ccccc2)c2ccccc2)CCCSCC(=O)NCCC[P+](c2ccccc2)(c2ccccc2)c2ccccc2)c1 [DnP6-1C18]", 0.3),
    ("CCCCCCCCCCCCNC(=O)c1cc(OCCC[Si](CCCSCC(=O)NCCC[P+](c2ccccc2)(c2ccccc2)c2ccccc2)(CCCSCC(=O)NCCC[P+](c2ccccc2)(c2ccccc2)c2ccccc2)CCCSCC(=O)NCCC[P+](c2ccccc2)(c2ccccc2)c2ccccc2)cc(C(=O)NCCCCCCCCCCCC)c1 [DnP3-2C12]", 0.2),
]

Attention now shifts to the item below.
Tell me measured PI of dendriplex for CCCCCCCCCCCCCCCCCCNC(=O)c1cc(OCCC[Si](CCCSCC(=O)NCCC[P+](c2ccccc2)(c2ccccc2)c2ccccc2)(CCCSCC(=O)NCCC[P+](c2ccccc2)(c2ccccc2)c2ccccc2)CCCSCC(=O)NCCC[P+](c2ccccc2)(c2ccccc2)c2ccccc2)cc(C(=O)NCCCCCCCCCCCCCCCCCC)c1 [DnP3-2C18] please. 0.2

* * *

Each record here notes measured PI of dendriplex.
System: anti-miR-21 oligo(2′-O-methylribonucleotide)
PROTOCOL NOTES: DLS of dendriplexes with anti-miR-21 oligonucleotide
Format: physicochemical
PROTOCOL CONDITIONS: CR 1.2
Experimental: Dendriplexes were characterized by DLS using Zetasizer Nano-S (Malvern Panalytical, UK) equipped with a 632.8 nm laser, applying detection angle 173°. Mean diameters from the intensity-weighted size distribution are given. Average results from three consecutive sets of measurements generated by Malvern Zetasizer Software version 7.13 are presented. Amphiphilic dendrons (1.5–73 μM) were mixed with the anti-miR-21:5′-m([…]) (500 nM) in 0.9% NaCl solution in milli-Q water. […]

Below, 5 compounds whose answers are already recorded.
# SMILES TEXT, PI of dendriplex
data = [
    ("CCCCCCCCCCCCNC(=O)c1cc(OCCC[Si](CCCSCC(=O)NCCC[P+](c2ccccc2)(c2ccccc2)c2ccccc2)(CCCSCC(=O)NCCC[P+](c2ccccc2)(c2ccccc2)c2ccccc2)CCCSCC(=O)NCCC[P+](c2ccccc2)(c2ccccc2)c2ccccc2)cc(OCCC[Si](CCCSCC(=O)NCCC[P+](c2ccccc2)(c2ccccc2)c2ccccc2)(CCCSCC(=O)NCCC[P+](c2ccccc2)(c2ccccc2)c2ccccc2)CCCSCC(=O)NCCC[P+](c2ccccc2)(c2ccccc2)c2ccccc2)c1", 0.08),
    ("CCCCCCCCCCCCCCCCCCNC(=O)c1ccc(OCCC[Si](CCCSCC(=O)NCCC[P+](c2ccccc2)(c2ccccc2)c2ccccc2)(CCCSCC(=O)NCCC[P+](c2ccccc2)(c2ccccc2)c2ccccc2)CCCSCC(=O)NCCC[P+](c2ccccc2)(c2ccccc2)c2ccccc2)cc1", 0.14),
    ("CCCCCCCCCCCCCCCCCCNC(=O)c1cc(OCCC[Si](CCCSCC(=O)NCCC[P+](c2ccccc2)(c2ccccc2)c2ccccc2)(CCCSCC(=O)NCCC[P+](c2ccccc2)(c2ccccc2)c2ccccc2)CCCSCC(=O)NCCC[P+](c2ccccc2)(c2ccccc2)c2ccccc2)cc(C(=O)NCCCCCCCCCCCCCCCCCC)c1", 0.12),
    ("CCCCCCCCCCCCNC(=O)c1ccc(OCCC[Si](CCCSCC(=O)NCCC[P+](c2ccccc2)(c2ccccc2)c2ccccc2)(CCCSCC(=O)NCCC[P+](c2ccccc2)(c2ccccc2)c2ccccc2)CCCSCC(=O)NCCC[P+](c2ccccc2)(c2ccccc2)c2ccccc2)cc1", 0.07),
    ("CCCCCCCCCCCCCCCCCCNC(=O)c1cc(OCCC[Si](CCCSCC(=O)NCCC[P+](c2ccccc2)(c2ccccc2)c2ccccc2)(CCCSCC(=O)NCCC[P+](c2ccccc2)(c2ccccc2)c2ccccc2)CCCSCC(=O)NCCC[P+](c2ccccc2)(c2ccccc2)c2ccccc2)cc(OCCC[Si](CCCSCC(=O)NCCC[P+](c2ccccc2)(c2ccccc2)c2ccccc2)(CCCSCC(=O)NCCC[P+](c2ccccc2)(c2ccccc2)c2ccccc2)CCCSCC(=O)NCCC[P+](c2ccccc2)(c2ccccc2)c2ccccc2)c1", 0.05),
]

Attention now shifts to the item below.
Tell me measured PI of dendriplex for `CCCCCCCCCCCCNC(=O)c1cc(OCCC[Si](CCCSCC(=O)NCCC[P+](c2ccccc2)(c2ccccc2)c2ccccc2)(CCCSCC(=O)NCCC[P+](c2ccccc2)(c2ccccc2)c2ccccc2)CCCSCC(=O)NCCC[P+](c2ccccc2)(c2ccccc2)c2ccccc2)cc(C(=O)NCCCCCCCCCCCC)c1` please. 0.11
